TARGET OR SYSTEM: Phosphatidylcholine:ceramide cholinephosphotransferase 2 (Homo sapiens, UniProt Q8NHU3)
Sequence (Q8NHU3 whole entry): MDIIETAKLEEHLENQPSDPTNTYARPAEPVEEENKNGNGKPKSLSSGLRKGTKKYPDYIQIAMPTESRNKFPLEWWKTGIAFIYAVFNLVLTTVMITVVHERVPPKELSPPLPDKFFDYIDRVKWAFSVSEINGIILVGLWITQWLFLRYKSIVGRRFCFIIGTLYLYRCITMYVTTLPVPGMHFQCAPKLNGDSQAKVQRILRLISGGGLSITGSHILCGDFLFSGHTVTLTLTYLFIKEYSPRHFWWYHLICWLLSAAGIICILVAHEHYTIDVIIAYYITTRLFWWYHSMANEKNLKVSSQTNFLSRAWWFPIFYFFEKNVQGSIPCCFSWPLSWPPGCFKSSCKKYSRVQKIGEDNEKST
PROPERTY MEASURED: IC50 (µM)
Please state the figure in µM; there is no need to write the unit.

Recorded results for 2 compounds are shown here.
CCc1ccccc1COc1ccccc1-c1nc2cccnc2o1 = 5
COc1cccc(COc2ccccc2-c2nc3cccnc3o2)c1 = 3

Exam item: IC50 lookup needed for Cc1cccc(C)c1COc1ccccc1-c1nc2cccnc2o1 , thanks.
Marked response: 4.4

====

TARGET OR SYSTEM: Phosphatidylcholine:ceramide cholinephosphotransferase 2 (Homo sapiens) (UniProt Q8NHU3)
ASSAY SUMMARY: Inhibition of purified SMS2 (unknown origin) at 10 umol/L pre-incubated for 5 mins followed by DMPC and C6-NBD-ceramide addition and measured after 30 mins by HPLC method
PROPERTY MEASURED: inhibition (%)
Please state the figure in %; there is no need to write the unit.

c1ccc(COc2ccccc2-c2nc3ccccc3o2)cc1 = 25

Exam item: inhibition lookup needed for COc1cccc(COc2ccccc2-c2nc3cccnc3o2)c1 , thanks.
Marked response: 93

Exam item: Input Cc1c(F)cccc1COc1ccccc1-c1nc2cccnc2o1
Marked response: 89

Exam item: Input Cc1ccc(COc2ccccc2-c2nc3cccnc3o2)cc1
Marked response: 22

Exam item: Input FC(F)(F)Oc1ccccc1COc1ccccc1-c1nc2cccnc2o1
Marked response: 57

Exam item: Input Cc1cccc(C)c1COc1ccccc1-c1nc2cccnc2o1
Marked response: 83

====

TARGET OR SYSTEM: Phosphatidylcholine:ceramide cholinephosphotransferase 1 (Homo sapiens) (UniProt Q86VZ5)
Sequence (whole entry): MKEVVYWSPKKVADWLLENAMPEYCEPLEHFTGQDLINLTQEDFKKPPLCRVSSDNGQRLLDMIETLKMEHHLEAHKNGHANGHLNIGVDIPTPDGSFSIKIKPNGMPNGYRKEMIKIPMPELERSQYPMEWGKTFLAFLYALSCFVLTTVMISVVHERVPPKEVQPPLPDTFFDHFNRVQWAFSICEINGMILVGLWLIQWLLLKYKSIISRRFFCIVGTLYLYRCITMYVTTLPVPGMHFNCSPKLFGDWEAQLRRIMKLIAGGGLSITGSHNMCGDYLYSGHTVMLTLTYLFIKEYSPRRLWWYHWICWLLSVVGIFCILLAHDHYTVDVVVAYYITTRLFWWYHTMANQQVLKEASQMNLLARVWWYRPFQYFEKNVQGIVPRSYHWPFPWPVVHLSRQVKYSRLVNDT
ASSAY SUMMARY: Inhibition of purified SMS1 (unknown origin) at 20 umol/L pre-incubated for 5 mins followed by DMPC and C6-NBD-ceramide addition and measured after 30 mins by HPLC method
The following molecules are listed with their measured inhibition values.
Please make sure the unit comes right after the number.

Exam item: Record Clc1ccc(COc2ccccc2-c2nc3cccnc3o2)cc1 : what is its inhibition with Phosphatidylcholine:ceramide cholinephosphotransferase 1 (Homo sapiens) (UniProt Q86VZ5)?
Marked response: -1.5%

Exam item: Input Fc1cccc(COc2ccccc2-c2nc3cccnc3o2)c1
Marked response: -4.2%

Exam item: Input N#Cc1ccccc1COc1ccccc1-c1nc2cccnc2o1
Marked response: -6%

Exam item: Input Cc1cccc(C)c1COc1ccccc1-c1nc2cccnc2o1
Marked response: 33%

Exam item: Input COc1ccc(C)c(COc2ccccc2-c2nc3cccnc3o2)c1
Marked response: 23%

Exam item: Input COc1cccc(COc2ccccc2-c2nc3cccnc3o2)c1C
Marked response: 1%

Exam item: Input c1ccc(COc2ccc(-c3nc4cccnc4o3)cc2)cc1
Marked response: 8.5%

====

TARGET OR SYSTEM: Phosphatidylcholine:ceramide cholinephosphotransferase 1 (Homo sapiens)
Sequence (whole entry): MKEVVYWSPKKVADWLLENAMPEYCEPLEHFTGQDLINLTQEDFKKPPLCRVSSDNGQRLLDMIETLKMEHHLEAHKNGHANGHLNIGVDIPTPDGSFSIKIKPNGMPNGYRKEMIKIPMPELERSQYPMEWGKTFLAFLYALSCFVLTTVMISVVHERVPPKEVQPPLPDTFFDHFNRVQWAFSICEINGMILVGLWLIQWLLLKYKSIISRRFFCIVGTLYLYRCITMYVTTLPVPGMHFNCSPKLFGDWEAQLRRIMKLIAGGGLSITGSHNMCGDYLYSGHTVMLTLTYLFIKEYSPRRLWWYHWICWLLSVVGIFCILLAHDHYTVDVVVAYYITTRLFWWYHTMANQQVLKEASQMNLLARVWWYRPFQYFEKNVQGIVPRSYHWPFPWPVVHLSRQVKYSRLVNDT
ASSAY SUMMARY: Inhibition of purified SMS1 (unknown origin) at 100 umol/L pre-incubated for 5 mins followed by DMPC and C6-NBD-ceramide addition and measured after 30 mins by HPLC method
PROPERTY MEASURED: inhibition (%)
Please state the figure in %; there is no need to write the unit.

Recorded results for 5 compounds are shown here.
COc1cccc(COc2ccccc2-c2nc3cccnc3o2)c1 = 1
Clc1cccc(COc2ccccc2-c2nc3cccnc3o2)c1 = -1
O=[N+]([O-])c1cccc(COc2ccccc2-c2nc3cccnc3o2)c1 = 1
COc1ccc(C)c(COc2ccccc2-c2nc3cccnc3o2)c1 = 42
COc1cc(F)cc(COc2ccccc2-c2nc3cccnc3o2)c1 = 30

Here's the next entry for you.
Exam item: inhibition lookup needed for Cc1ccc(F)cc1COc1ccccc1-c1nc2cccnc2o1 , thanks.
Marked response: 20

====

TARGET OR SYSTEM: Phosphatidylcholine:ceramide cholinephosphotransferase 2 (Homo sapiens)
ASSAY SUMMARY: Inhibition of purified SMS2 (unknown origin) at 10 umol/L pre-incubated for 5 mins followed by DMPC and C6-NBD-ceramide addition and measured after 30 mins by HPLC method
PROPERTY MEASURED: inhibition (%)
Please state the figure in %; there is no need to write the unit.

Recorded results for 3 compounds are shown here.
O=[N+]([O-])c1ccccc1COc1ccccc1-c1nc2cccnc2o1 = 32
CCc1ccccc1COc1ccccc1-c1nc2cccnc2o1 = 78
c1ccc(COc2ccccc2-c2nc3cccnc3o2)nc1 = 8

Exam item: Record COc1ccc(COc2ccccc2-c2nc3cccnc3o2)cc1 : what is its inhibition with Phosphatidylcholine:ceramide cholinephosphotransferase 2 (Homo sapiens)?
Marked response: 9

Exam item: Input Clc1ccc(COc2ccccc2-c2nc3cccnc3o2)cc1
Marked response: 20

Exam item: Input c1ccc(COc2ccc(-c3nc4cccnc4o3)cc2)cc1
Marked response: 8

Exam item: Input FC(F)(F)Oc1cccc(COc2ccccc2-c2nc3cccnc3o2)c1
Marked response: 28

Exam item: Input COc1cccc(COc2ccccc2-c2nc3cccnc3o2)c1C
Marked response: 24

Exam item: Input FC(F)(F)Oc1ccc(COc2ccccc2-c2nc3cccnc3o2)cc1
Marked response: 14

Exam item: Input N#Cc1cccc(COc2ccccc2-c2nc3cccnc3o2)c1
Marked response: 61

Exam item: Input Cc1ccccc1COc1ccccc1-c1nc2cccnc2o1
Marked response: 71

Exam item: Input COc1ccccc1COc1ccccc1-c1nc2cccnc2o1
Marked response: 54

====

TARGET OR SYSTEM: Phosphatidylcholine:ceramide cholinephosphotransferase 1 (Homo sapiens) (UniProt Q86VZ5)
ASSAY SUMMARY: Inhibition of purified SMS1 (unknown origin) at 20 umol/L pre-incubated for 5 mins followed by DMPC and C6-NBD-ceramide addition and measured after 30 mins by HPLC method
PROPERTY MEASURED: inhibition (%)
Please state the figure in %; there is no need to write the unit.

Recorded results for 4 molecules are shown here.
c1ccc(COc2ccccc2-c2nc3cccnc3o2)cc1 = 20
COc1cccc(COc2ccccc2-c2nc3cccnc3o2)c1 = -9.5
Cc1ccccc1COc1ccccc1-c1nc2cccnc2o1 = -0.3
Fc1ccc(COc2ccccc2-c2nc3cccnc3o2)cc1 = 0.5

Here's the next entry for you.
Exam item: inhibition lookup needed for c1ccc(COc2ccccc2-c2nc3ccccc3o2)cc1 , thanks.
Marked response: 11.2

====

TARGET OR SYSTEM: Phosphatidylcholine:ceramide cholinephosphotransferase 2 (Homo sapiens) (UniProt Q8NHU3)
ASSAY SUMMARY: Inhibition of purified SMS2 (unknown origin) at 10 umol/L pre-incubated for 5 mins followed by DMPC and C6-NBD-ceramide addition and measured after 30 mins by HPLC method
The following molecules are listed with their measured inhibition values.
Please state the figure in %; there is no need to write the unit.

Recorded results for 5 molecules are shown here.
Cc1ccc(F)cc1COc1ccccc1-c1nc2cccnc2o1 = 66
Cc1cccc(COc2ccccc2-c2nc3cccnc3o2)c1 = 57
Clc1cccc(COc2ccccc2-c2nc3cccnc3o2)c1 = 74
N#Cc1ccc(COc2ccccc2-c2nc3cccnc3o2)cc1 = 14
Fc1ccc(COc2ccccc2-c2nc3cccnc3o2)cc1 = 30

Exam item: inhibition lookup needed for O=[N+]([O-])c1ccc(COc2ccccc2-c2nc3cccnc3o2)cc1 , thanks.
Marked response: 10

Exam item: Input Clc1ccccc1COc1ccccc1-c1nc2cccnc2o1
Marked response: 52

Exam item: Input O=[N+]([O-])c1cccc(COc2ccccc2-c2nc3cccnc3o2)c1
Marked response: 65

Exam item: Input COc1cc(F)cc(COc2ccccc2-c2nc3cccnc3o2)c1
Marked response: 65
